system: SF-539 CNS; test: NCI tumour cell line growth inhibition, 48 h
Parameter measured: TGI

CC(=O)Oc1c(C(=O)[O-])cc(C(C)C)cc1C(C)C.CC(=O)Oc1c(C(=O)[O-])cc(C(C)C)cc1C(C)C.CC(=O)Oc1c(C(=O)[O-])cc(C(C)C)cc1C(C)C.CC(=O)Oc1c(C(=O)[O-])cc(C(C)C)cc1C(C)C.[Cu+2].[Cu+2] : > 100 µM
O=[N+]([O-])c1ccc(-c2ccc(C3=Nn4c(CNc5ccccc5Cl)nnc4SC3)o2)cc1 : > 100 µM
COC(=O)c1cc2c(cc1Cl)Sc1nnc(Nc3ccccc3)n1S2(=O)=O : 6.07 µM
COc1cc(C2c3cc4c(cc3OC(NN)C2C)OCO4)cc(OC)c1O (stereo not drawn) : 45.4 µM
COc1ccc(-c2oc3cc(-c4cc5oc(-c6ccc(OC)cc6)c(-c6ccc(OC)cc6)c5cc4OC)c(OC)cc3c2-c2ccc(OC)cc2)cc1 : > 100 µM
COc1cc(-c2nccc3[nH]c(-c4ccc5cc[nH]c5c4)nc23)cc(OC)c1OC : < 0.01 µM
Cc1cc(N(CCC#N)CCC#N)ccc1/C(N=Nc1ccccc1)=N\NC(=O)c1cc(Cl)ccc1O : 58.3 µM
COC(=O)/C=C(\C(=O)OC)c1cc(C)c2cc(C(C)C)ccc(C)c1-2 : > 100 µM
